Data credit: patent US20220370416A1

Exercise: state measured DC50 for each of the compounds provided.
- measured_on: HiBit-KRAS^G12C (Homo sapiens, UniProt P01116, G12C)
- Sequence (P01116 1-186 isoform P01116-2 G12C limits assumed): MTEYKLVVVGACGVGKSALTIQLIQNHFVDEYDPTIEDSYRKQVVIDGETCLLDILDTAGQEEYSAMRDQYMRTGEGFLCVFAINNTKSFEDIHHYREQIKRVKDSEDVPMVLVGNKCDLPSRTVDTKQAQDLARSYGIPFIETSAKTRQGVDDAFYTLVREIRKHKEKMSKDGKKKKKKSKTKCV
- method: HiBit degradation assay in MiaPaCa-2 HiBit-KRas^G12C cells
- Format: cell-based
- experimental_conditions: read-out: KRas^G12C-HiBiT (MiaPaCa; 0.5% DMSO) IC50; MiaPaCa-2 HiBit-KRas^G12C cells; 0.5% DMSO; 24 hours

compound	measured_on	DC50
C=CC(=O)N1CCN(c2nc(OCCN3CCC(COc4cc([C@H](C(=O)N5C[C@H](O)C[C@H]5C(=O)N[C@@H](C)c5ccc(-c6scnc6C)cc5)C(C)C)on4)CC3)nc3c(F)c(-c4cc(O)cc5ccccc45)c(Cl)cc23)CC1 (atropisomer, axis not shown) [Compound 146]	HiBit-KRAS^G12C (Homo sapiens, UniProt P01116, G12C)	> 1000 nM

Give measured DC50 for every item shown.
1. C=CC(=O)N1CCN(c2nc(OC[C@@H]3CCCN3CCCCOCC(=O)N[C@H](C(=O)N3C[C@H](O)C[C@H]3C(=O)N[C@@H](C)c3ccc(-c4scnc4C)cc3)C(C)(C)C)nc3c(F)c(-c4cc(O)cc5ccccc45)c(Cl)cc23)C[C@@H]1CC#N
2. C=C(F)C(=O)N1CCN(c2nc(OCCN3CCC(F)(COc4cc([C@H](C(=O)N5C[C@H](O)C[C@H]5C(=O)N[C@@H](C)c5ccc(-c6scnc6C)cc5)C(C)C)on4)CC3)nc3c(F)c(-c4cc(O)cc5ccccc45)c(Cl)cc23)C[C@@H]1CC#N (atropisomer, axis not shown)
3. C=CC(=O)N1CCN(c2nc(OCCN3CCC4(CC3)CN(c3cc([C@@H](C(=O)N5C[C@H](O)C[C@H]5C(=O)N[C@@H](C)c5ccc(-c6scnc6C)cc5)C(C)C)on3)C4)nc3c(F)c(-c4cc(O)cc5ccccc45)c(Cl)cc23)C[C@@H]1CC#N [Compound 137]

> 1000 nM
100 to 1000 nM
> 1000 nM

---

- measured_on: HiBit-KRAS^G12C (Homo sapiens, UniProt P01116, G12C)
- method: HiBit degradation assay in SW1573 HiBit-KRas^G12C cells
- Format: cell-based
- Set-up: expressed in transfected cells; host or cells: SW1573 (clone E6), modified pcDNA3.1 vector, TK promoter
- experimental_conditions: SW1573, SW1573 HiBit-KRas^G12C, 0.5% DMSO, 24 hours; read-out: KRas^G12C-HiBiT (SW1573; 0.5% DMSO) Dmax**
Exercise: state measured Dmax for each of the compounds provided.

compound	Dmax
C=CC(=O)N1CCN(c2nc(OCCN3CCC(COCC(=O)N[C@H](C(=O)N4C[C@@H](O)C[C@H]4C(=O)N[C@@H](C)c4ccc(-c5scnc5C)cc4)C(C)(C)C)CC3)nc3c(F)c(-c4cccc5cccc(C)c45)c(Cl)cc23)C[C@@H]1CC#N [Compound 97]	> 70%

# input compound: C=C(F)C(=O)N1CCN(c2nc(OCCN3CCC(F)(COc4cc([C@H](C(=O)N5C[C@H](O)C[C@H]5C(=O)N[C@@H](C)c5ccc(-c6ccnn6C)cc5)C(C)C)on4)CC3)nc3c(F)c(-c4cc(O)cc5ccccc45)c(Cl)cc23)C[C@@H]1CC#N (atropisomer, axis not shown) [Compound 117] ; wanted: its Dmax
35 to 70%
